target: acto-Myo1c^1IQ (pyr.actin-Myo1c^1IQ) (Rattus norvegicus)
pKd: −log10 of the molar value.

[
  {
    "Molecule smiles": "Nc1ncnc2c1ncn2[C@@H]1O[C@H](COP(=O)(O)OP(=O)(O)O)[C@@H](O)[C@H]1O",
    "pKd": 5.76
  }
]
